Target: UniProtKB L7N1Y2
Assay: cell-based cAMP assay (HTRF), HEK293T co-transfected with Gαolf
Details: EC50, indole alone, absence of 2-acetonaphthone
readout.type: pEC50
One number for each entry, as −log10 of the molar value.

According to the records, this molecule `c1ccc2[nH]ccc2c1` displays pEC50 of 4.27

----------
Molecular target: Olfr743 (Mus musculus, UniProt L7N1Y2)
Sequence (P38405 2-381): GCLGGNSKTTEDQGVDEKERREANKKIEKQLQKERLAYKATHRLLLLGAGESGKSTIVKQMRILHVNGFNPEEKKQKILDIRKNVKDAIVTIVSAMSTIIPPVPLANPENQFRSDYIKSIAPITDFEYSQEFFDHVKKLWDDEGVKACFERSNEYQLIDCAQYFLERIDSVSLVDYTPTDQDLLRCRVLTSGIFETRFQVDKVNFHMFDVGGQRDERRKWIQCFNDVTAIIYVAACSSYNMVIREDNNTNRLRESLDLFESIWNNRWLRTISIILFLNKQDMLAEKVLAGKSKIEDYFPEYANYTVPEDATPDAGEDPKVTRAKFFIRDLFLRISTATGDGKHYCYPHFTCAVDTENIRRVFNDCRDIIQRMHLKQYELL
Sequence (L7N1Y2 entry or part of it): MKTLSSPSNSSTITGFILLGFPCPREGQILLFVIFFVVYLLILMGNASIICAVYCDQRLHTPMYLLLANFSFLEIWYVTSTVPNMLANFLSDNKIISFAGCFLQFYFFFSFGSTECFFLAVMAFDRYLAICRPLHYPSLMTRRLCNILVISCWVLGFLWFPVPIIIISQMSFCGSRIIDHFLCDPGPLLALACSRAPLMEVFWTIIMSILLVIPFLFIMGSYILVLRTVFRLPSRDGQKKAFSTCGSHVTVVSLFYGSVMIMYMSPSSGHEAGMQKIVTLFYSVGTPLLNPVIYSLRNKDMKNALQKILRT
Assay: cell-based cAMP assay (HTRF), HEK293T co-transfected with Gαolf
Conditions: EC50, indole in the presence of 300 μM 2-acetonaphthone
readout.type: pEC50
Answers are plain numbers, as −log10 of the molar value.

Reported pEC50 ( c1ccc2[nH]ccc2c1 [indole] ) = 3.69
